# Kd listing for each entry below
- testedSystem: T1, EsCas13d, nuclease-dead (Eubacterium siraeum, UniProt B0MS50, R295A;H300A;R849A;H854A)
- T1 sequence: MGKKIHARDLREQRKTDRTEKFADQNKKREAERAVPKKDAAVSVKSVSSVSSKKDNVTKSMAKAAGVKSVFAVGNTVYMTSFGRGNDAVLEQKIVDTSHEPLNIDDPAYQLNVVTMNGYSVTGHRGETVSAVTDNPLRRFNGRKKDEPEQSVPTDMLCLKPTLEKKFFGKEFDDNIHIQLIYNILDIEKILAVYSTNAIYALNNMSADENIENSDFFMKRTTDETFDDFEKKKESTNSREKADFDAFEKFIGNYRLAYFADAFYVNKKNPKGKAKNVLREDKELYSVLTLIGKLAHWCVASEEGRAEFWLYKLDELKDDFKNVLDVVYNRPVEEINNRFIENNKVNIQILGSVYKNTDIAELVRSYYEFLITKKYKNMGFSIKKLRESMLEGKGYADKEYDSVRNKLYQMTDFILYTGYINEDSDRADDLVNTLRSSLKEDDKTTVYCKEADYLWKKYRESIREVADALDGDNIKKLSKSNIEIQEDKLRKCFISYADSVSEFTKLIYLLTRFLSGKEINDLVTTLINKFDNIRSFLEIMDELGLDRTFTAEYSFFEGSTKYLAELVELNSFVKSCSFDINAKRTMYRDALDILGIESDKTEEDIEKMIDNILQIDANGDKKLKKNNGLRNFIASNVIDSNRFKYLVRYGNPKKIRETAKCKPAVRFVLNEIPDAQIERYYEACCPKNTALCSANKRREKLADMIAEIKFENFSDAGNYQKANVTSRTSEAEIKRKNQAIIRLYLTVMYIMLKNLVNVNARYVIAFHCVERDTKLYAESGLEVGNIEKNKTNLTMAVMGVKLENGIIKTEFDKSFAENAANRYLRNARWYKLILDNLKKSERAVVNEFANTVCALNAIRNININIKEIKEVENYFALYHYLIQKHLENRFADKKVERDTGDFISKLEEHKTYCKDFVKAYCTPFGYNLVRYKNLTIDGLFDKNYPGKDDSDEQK
- experimentDescription: crRNA (strand 1, pre-loaded); Mg2+; 40 mM Tris-HCl pH 7.5, 150 mM NaCl, 6 mM MgCl2, 1 mM DTT, 0.1% Tween-20, 0.2 mg/ml BSA; 25 C; 10 min per concentration, then washed
- testParameters: tags: His6-TwinStrep-SUMO cleaved; N-terminal SNAP kept (SNAP-Surface 488); label: 3' end held by stalled T7 RNA polymerase
State just the number; it will be interpreted in nM.

Would you please look over these solved cases?
INSERT INTO results (binder, measuredresult) VALUES
  ('target 2 MT 5''PFS CUC 3''PFS UUA (mixed) RNA 1: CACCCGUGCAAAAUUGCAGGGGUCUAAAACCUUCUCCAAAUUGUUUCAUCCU RNA 2: GGGAAUGGAUCCACAUCUACGAAUUCCUCAGGAUGAAACAAUUUGGAGAAGUUAAGAUCGGAAGAGCACACGU', 4.9),
  ('target 2 MT 5''PFS UAC 3''PFS AUA (mixed) RNA 1: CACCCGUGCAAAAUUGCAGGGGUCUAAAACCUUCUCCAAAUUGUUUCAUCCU RNA 2: GGGAAUGGAUCCACAUCUACGAAUUCUACAGGAUGAAACAAUUUGGAGAAGAUAAGAUCGGAAGAGCACACGU', 4.9),
  ('target 1 insA 3'' of 22,insG 3'' of 8 (mixed) RNA 1: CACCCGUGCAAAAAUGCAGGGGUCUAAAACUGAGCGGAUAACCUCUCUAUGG RNA 2: GGGAAUGGAUCCACAUCUACGAAUUCGUACACAUAGAGAGGUUAUGCCGCUCACCGAGAUCGGAAGAGCACACGU', 17.4),
  ('target 2 MT 5''PFS GUU 3''PFS UAU (mixed) RNA 1: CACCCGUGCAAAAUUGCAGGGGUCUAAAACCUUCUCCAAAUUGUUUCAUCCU RNA 2: GGGAAUGGAUCCACAUCUACGAAUUCGUUAGGAUGAAACAAUUUGGAGAAGUAUAGAUCGGAAGAGCACACGU', 16.2),
  ('target 2 MT 5''PFS UUG 3''PFS AAA (mixed) RNA 1: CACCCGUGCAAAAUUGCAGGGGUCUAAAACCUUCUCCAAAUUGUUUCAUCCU RNA 2: GGGAAUGGAUCCACAUCUACGAAUUCUUGAGGAUGAAACAAUUUGGAGAAGAAAAGAUCGGAAGAGCACACGU', 6.7);

// target 1 C2G,U3C (mixed) RNA 1: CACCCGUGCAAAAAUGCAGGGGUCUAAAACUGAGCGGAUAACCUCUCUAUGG RNA 2: GGGAAUGGAUCCACAUCUACGAAUUCGUACCAUAGAGAGGUUAUCCGCCGACCGAGAUCGGAAGAGCACACGU : Kd value = 8.6

// target 1 MT 5'PFS UUA 3'PFS CUC (mixed) RNA 1: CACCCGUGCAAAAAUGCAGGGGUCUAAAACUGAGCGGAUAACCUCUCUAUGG RNA 2: GGGAAUGGAUCCACAUCUACGAAUUCUUACCAUAGAGAGGUUAUCCGCUCACUCAGAUCGGAAGAGCACACGU : Kd value = 16
